- Test system: pERK in Hela cells
- assay remarks: Phospho-ERK (p-ERK) assay in Hela cells
- Type: cell-based
- test conditions: Table 1, 1 hour with compound, β-actin normalized
- Description: This Example illustrates that exemplary compounds of the present invention prevent KRas-mediated GTP nucleotide exchange mediated by SOS1 to inhibit KRas activity, thereby inhibiting the generation of the downstream effector pERK. Hela cells (23,000/w) were seeded in a black clear flat bottom 96-well cell culture plate (Corning, #3904) and incubated at 37° C. overnight. […] On day 3, the primary antibody solution was removed. […] The IC50 values were then calculated with the Graph pad Prism software. […]
experimental endpoint: IC50

Q) Supply reported IC50 belonging to this molecule: Cc1nc(N[C@H](C)c2cccc(C(F)F)c2F)c2cc(C(=O)N3CC4(COC4)C3)c3nnnn3c2n1
A) > 100 nM

Recorded values, source patent US20250230159A1.
